# System: recombinant NL-Rluc virus
# assayOverview: Inhibition of HIV replication (NL-RLuc luciferase reporter virus, MT-2 cells)
# Assay type: cell-based
# experimentalParameters: Human immunodeficiency virus 1, MT2, 120 h, read-out: Activity
pEC50: −log10 of the molar value.
readoutKind: pEC50

Query for recombinant NL-Rluc virus: what pEC50 does the record show for Cc1nc2cc(C(=O)N3CCC(CCO)CC3)nn2c(-c2cc(F)c3c(c2C)CCCO3)c1[C@H](OC(C)(C)C)C(=O)O ?
< 6.00

Also need Cc1nc2cc(C(=O)NCC3CCCO3)nn2c(-c2cc(F)c3c(c2C)CCCO3)c1[C@H](OC(C)(C)C)C(=O)O (stereo partly shown) , thanks.
6.00 to 7.00

Also check Cc1nc2cc(C(=O)N3CCN(c4ccccc4)CC3)nn2c(-c2cc(F)c3c(c2C)CCCO3)c1[C@H](OC(C)(C)C)C(=O)O
> 7.00

What do we get for Cc1nc2cc(C(=O)NCCC34C[C@H]5C[C@@H](C3)C[C@@H](C4)C5)nn2c(-c2cc(F)c3c(c2C)CCCO3)c1[C@H](OC(C)(C)C)C(=O)O ?
> 7.00

Please give the result for Cc1nc2cc(C(=O)NCc3cccc(C(F)(F)F)c3)nn2c(-c2cc(F)c3c(c2C)CCCO3)c1[C@H](OC(C)(C)C)C(=O)O too.
> 7.00

Same thing, different compound: Cc1nc2cc(C(=O)NCC3CCN(C(=O)C(C)C)CC3)nn2c(-c2cc(F)c3c(c2C)CCCO3)c1[C@H](OC(C)(C)C)C(=O)O
< 6.00

Try CON(Cc1ccc(F)cc1)C(=O)c1cc2nc(C)c([C@H](OC(C)(C)C)C(=O)O)c(-c3cc(F)c4c(c3C)CCCO4)n2n1 next.
> 7.00

Cool, now CCc1cc(CNC(=O)c2cc3nc(C)c([C@H](OC(C)(C)C)C(=O)O)c(-c4cc(F)c5c(c4C)CCCO5)n3n2)ccc1F
> 7.00

How about this compound: Cc1nc2cc(C(=O)NCc3ccc(F)c(C4CC4)c3)nn2c(-c2cc(F)c3c(c2C)CCCO3)c1[C@H](OC(C)(C)C)C(=O)O
> 7.00

And what about the compound Cc1nc2cc(C(=O)NCc3csc(-c4ccccc4)n3)nn2c(-c2cc(F)c3c(c2C)CCCO3)c1[C@H](OC(C)(C)C)C(=O)O ?
> 7.00

Can you handle COc1ccccc1CNC(=O)c1cc2nc(C)c([C@H](OC(C)(C)C)C(=O)O)c(-c3cc(F)c4c(c3C)CCCO4)n2n1 next?
> 7.00

Also, Cc1nc2cc(C(=O)NCCC(C)(C)C)nn2c(-c2ccc3c(c2Cl)NCCO3)c1[C@H](OC(C)(C)C)C(=O)O please.
6.00 to 7.00

Lookup CCCCCc1ccccc1CNC(=O)c1cc2nc(C)c([C@H](OC(C)(C)C)C(=O)O)c(-c3ccc4c(c3Cl)NCCO4)n2n1
> 7.00

Also need Cc1nc2cc(C(=O)NCC3CC3)nn2c(-c2cc(F)c3c(c2C)CCCO3)c1[C@H](OC(C)(C)C)C(=O)O , thanks.
6.00 to 7.00

Query COc1ccc(CNC(=O)c2cc3nc(C)c([C@H](OC(C)(C)C)C(=O)O)c(-c4cc(F)c5c(c4C)CCCO5)n3n2)cc1OC next
6.00 to 7.00

Another compound: Cc1nc2cc(C(=O)NCc3ncc(F)cc3F)nn2c(-c2cc(F)c3c(c2C)CCCO3)c1[C@H](OC(C)(C)C)C(=O)O
6.00 to 7.00

Okay, and Cc1nc2cc(C(=O)N(C)CCc3ccccc3)nn2c(-c2cc(F)c3c(c2C)CCCO3)c1[C@H](OC(C)(C)C)C(=O)O ?
> 7.00

Please do the same for Cc1nc2cc(C(=O)N(C)Cc3ccc(Cl)c(Cl)c3)nn2c(-c2cc(F)c3c(c2C)CCCO3)c1[C@H](OC(C)(C)C)C(=O)O as well.
> 7.00

Param item: CCCc1cc(CNC(=O)c2cc3nc(C)c([C@H](OC(C)(C)C)C(=O)O)c(-c4cc(F)c5c(c4C)CCCO5)n3n2)ccc1F
> 7.00

Queued: Cc1nc2cc(C(=O)NCCCN3CCCC3=O)nn2c(-c2cc(F)c3c(c2C)CCCO3)c1[C@H](OC(C)(C)C)C(=O)O
< 6.00

Also Cc1nc2cc(C(=O)Nc3ccccc3)nn2c(-c2cc(F)c3c(c2C)CCCO3)c1[C@H](OC(C)(C)C)C(=O)O ?
> 7.00

Note, next up: Cc1ccc(CN(C)C(=O)c2cc3nc(C)c([C@H](OC(C)(C)C)C(=O)O)c(-c4cc(F)c5c(c4C)CCCO5)n3n2)cc1
> 7.00

Here is the next compound: Cc1nc2cc(C(=O)NCC3CCN(C(=O)OC(C)(C)C)CC3)nn2c(-c2cc(F)c3c(c2C)CCCO3)c1[C@H](OC(C)(C)C)C(=O)O
6.00 to 7.00

Check Cc1nc2cc(C(=O)NCc3ccc(Cl)c(C(F)(F)F)c3)nn2c(-c2cc(F)c3c(c2C)CCCO3)c1[C@H](OC(C)(C)C)C(=O)O too.
> 7.00

Note, next up: Cc1nc2cc(C(=O)NCCNc3ccccc3)nn2c(-c2cc(F)c3c(c2C)CCCO3)c1[C@H](OC(C)(C)C)C(=O)O
6.00 to 7.00

###

I'd appreciate it if you could supply pEC50 values for the items below.
# System: recombinant NL-Rluc virus
# assayOverview: Inhibition of HIV replication (NL-RLuc luciferase reporter virus, MT-2 cells)
# Format: cell-based
# experimentalParameters: Human immunodeficiency virus 1, MT2, 120 h, read-out: Activity
pEC50: −log10 of the molar value.

Bench note: what pEC50 did Cc1cc(CNC(=O)c2nn3c(-c4cc(F)c5c(c4C)CCCO5)c([C@H](OC(C)(C)C)C(=O)O)c(C)nc3c2Cl)ccc1F show?
> 7.00

Entry to check: Cc1nc2cc(C(=O)NCC3CCN(C(=O)C4CC4)CC3)nn2c(-c2cc(F)c3c(c2C)CCCO3)c1[C@H](OC(C)(C)C)C(=O)O
< 6.00

Then Cc1nc2cc(C(=O)NCc3ccc(Oc4ccccc4)cc3)nn2c(-c2cc(F)c3c(c2C)CCCO3)c1[C@H](OC(C)(C)C)C(=O)O ?
> 7.00

Cc1nc2cc(C(=O)NCCc3ccccc3)nn2c(-c2cc(F)c3c(c2C)CCCO3)c1[C@H](OC(C)(C)C)C(=O)O ?
> 7.00

What would you report for Cc1nc2cc(C(=O)NCC34C[C@H]5C[C@@H](C3)C[C@@H](C4)C5)nn2c(-c2cc(F)c3c(c2C)CCCO3)c1[C@H](OC(C)(C)C)C(=O)O ?
> 7.00

What about Cc1nc2cc(C(=O)NC(C)c3ccccc3)nn2c(-c2cc(F)c3c(c2C)CCCO3)c1[C@H](OC(C)(C)C)C(=O)O (stereo partly shown) ?
> 7.00

// query: COc1cccc(CNC(=O)c2cc3nc(C)c([C@H](OC(C)(C)C)C(=O)O)c(-c4cc(F)c5c(c4C)CCCO5)n3n2)c1
> 7.00

Next compound: Cc1nc2cc(C(=O)NCc3ccc(F)cc3-n3cncn3)nn2c(-c2cc(F)c3c(c2C)CCCO3)c1[C@H](OC(C)(C)C)C(=O)O
6.00 to 7.00

Follow-up item: Cc1nc2cc(C(=O)NCCCN3CCOCC3)nn2c(-c2cc(F)c3c(c2C)CCCO3)c1[C@H](OC(C)(C)C)C(=O)O
< 6.00

Now consider Cc1nc2cc(C(=O)NCCN3CCCC3)nn2c(-c2cc(F)c3c(c2C)CCCO3)c1[C@H](OC(C)(C)C)C(=O)O and answer again.
< 6.00

Please answer likewise for Cc1nc2cc(C(=O)NCc3ccc(C(F)(F)F)cc3)nn2c(-c2cc(F)c3c(c2C)CCCO3)c1[C@H](OC(C)(C)C)C(=O)O
> 7.00

Here is the next compound: Cc1nc2cc(C(=O)NCCSC(C)(C)C)nn2c(-c2cc(F)c3c(c2C)CCCO3)c1[C@H](OC(C)(C)C)C(=O)O
> 7.00

Lookup Cc1cc(CNC(=O)c2cc3nc(C)c([C@H](OC(C)(C)C)C(=O)O)c(N4CCC(C)(C)CC4)n3n2)ccc1F
> 7.00

###

# Tested on: recombinant NL-Rluc virus
# assayOverview: Inhibition of HIV replication (NL-RLuc luciferase reporter virus, MT-2 cells)
# Type: cell-based
# experimentalParameters: Human immunodeficiency virus 1, MT2, 120 h, read-out: Activity
readoutKind: EC50

Need EC50 of Cc1nc2cc(C(=O)NCCCC3CCOC3)nn2c(-c2cc(F)c3c(c2C)CCCO3)c1[C@H](OC(C)(C)C)C(=O)O (stereo partly drawn) [Example 132] , thanks.
100 to 1000 nM

What do we get for Cc1nc2cc(C(=O)N3CCN(Cc4ccccc4)CC3)nn2c(-c2cc(F)c3c(c2C)CCCO3)c1[C@H](OC(C)(C)C)C(=O)O [Example 94] ?
100 to 1000 nM

Okay, and Cc1nc2cc(C(=O)NCCC3CCCCC3)nn2c(-c2cc(F)c3c(c2C)CCCO3)c1[C@H](OC(C)(C)C)C(=O)O [Example 128] ?
< 100 nM

Cc1nc2cc(C(=O)NCc3ccc4c(c3)OCO4)nn2c(-c2cc(F)c3c(c2C)CCCO3)c1[C@H](OC(C)(C)C)C(=O)O [Example 34] ?
< 100 nM

Note, next up: Cc1nc2cc(C(=O)NCC3CCCCC3)nn2c(-c2cc(F)c3c(c2C)CCCO3)c1[C@H](OC(C)(C)C)C(=O)O [Example 16]
< 100 nM

Also, Cc1nc2cc(C(=O)Nc3ccc(C4CCCCC4)cc3)nn2c(-c2cc(F)c3c(c2C)CCCO3)c1[C@H](OC(C)(C)C)C(=O)O [Example 73] please.
< 100 nM
